test system: MS2 coat protein; experiment: apparent KD of MS2 coat protein; higher = weaker reporter binding; details: Eterna round: R101; input ligand: FMN 200 uM
Returns one of 1 (yes) or 0 (no); 1 (yes) when apparent KD of MS2 coat protein is >= 20 nM.

Please review the following examples before continuing.
sequence | cat
GGAGAUACAUGAGGAUCACCCAUGUAGGAUAUAUAGUAUAUAUAUAUUGAAAGAUAUAUAUAUAUAUAGAAGGGCGUGCACACC [#LOL-17] (puzzle (switch architecture): Small Loop Exclusion NG 3) | 0 (no)
AAAUGAUAUCAGAAGGGCUCCAGCAAAGCUGGAGCAGGAUAUGAGGAUCACCCAUGUCACCUGACGGUCGAAACGACCGUCAGG [#SharedSequence - IExNG1: 7-3] (puzzle (switch architecture): Inverted Exclusion NG 1) | 1 (yes)
UAAAUAAAUCCUAGAGGAUCACCCUAGGAUAUCACCGUCGAGGUGCCAUAAUGGCACCUCGACGGUGAGAAGGAGGGAAAUAAA [#SharedSequence - SLExNG3: 3] (puzzle (switch architecture): Small Loop Exclusion NG 3) | 0 (no)

Shift focus to the following entry.
IN: Identify whether the reported apparent KD of MS2 coat protein of the following sequence is 20 nM or greater: AAUAAUCUUUAAGGAUAUCAGUGGCAAAGCCACUGAGAAGGUGAGGAUCACCCACCUACGUGACCCUGGAAACAGGGUCACGAA [#SharedSequence - ExNG1-10] (puzzle (switch architecture): Exclusion NG 1)
OUT: 0 (no)
